- test protocol: Selectivity ratio of IC50 for human MCF10A cells to IC50 for HGC cells
- Type: ADME, cell-based, MCF-10A
- assay conditions: MCF10A cells versus HGC cells, read-out: Ratio IC50
parameter measured: selectivity ratio

INSERT INTO assay_data (smiles_input, observed_value) VALUES
  ('CC(C)n1c(/C=C2/C(=O)Nc3ccc(Cl)cc32)nc2ccccc21', '2 to 3');

----------
- test protocol: Cytotoxicity against human MCF7 cells assessed as growth inhibition at 50 uM after 48 hrs by MTT assay relative to control
- Assay type: functional
- assay conditions: MCF7, 48 h, read-out: GI
Below, each of the compounds is paired with its reported inhibition of growth at 50 µM value.
parameter measured: inhibition of growth at 50 µM

INSERT INTO measurements (smiles_input, parameter_measured, observed_value) VALUES
  ('CC(C)n1c(/C=C2/C(=O)Nc3ccc(F)cc32)nc2ccccc21', 'inhibition of growth at 50 µM', '> 50%'),
  ('CCn1c(/C=C2/C(=O)Nc3ccc(Cl)cc32)nc2ccccc21', 'inhibition of growth at 50 µM', '< 50%'),
  ('CCn1c(/C=C2/C(=O)Nc3ccc(C)cc32)nc2ccccc21', 'inhibition of growth at 50 µM', '< 50%'),
  ('CC(C)n1c(/C=C2/C(=O)Nc3ccc(Br)cc32)nc2ccccc21', 'inhibition of growth at 50 µM', '> 50%'),
  ('CC(C)n1c(/C=C2/C(=O)Nc3ccccc32)nc2ccccc21', 'inhibition of growth at 50 µM', '> 50%'),
  ('CC(C)n1c(/C=C2/C(=O)Nc3ccc(Cl)cc32)nc2ccccc21', 'inhibition of growth at 50 µM', '> 50%'),
  ('Cn1c(/C=C2/C(=O)Nc3ccc(F)cc32)nc2ccccc21', 'inhibition of growth at 50 µM', '> 50%'),
  ('CCn1c(/C=C2/C(=O)Nc3ccc([N+](=O)[O-])cc32)nc2ccccc21', 'inhibition of growth at 50 µM', '< 50%'),
  ('Cn1c(/C=C2/C(=O)Nc3ccc(Cl)cc32)nc2ccccc21', 'inhibition of growth at 50 µM', '< 50%'),
  ('Cc1ccc2c(c1)/C(=C\c1nc3ccccc3n1C(C)C)C(=O)N2', 'inhibition of growth at 50 µM', '> 50%'),
  ('CCn1c(/C=C2/C(=O)Nc3ccc(F)cc32)nc2ccccc21', 'inhibition of growth at 50 µM', '< 50%'),
  ('Cn1c(/C=C2/C(=O)Nc3ccccc32)nc2ccccc21', 'inhibition of growth at 50 µM', '< 50%'),
  ('Cn1c(/C=C2/C(=O)Nc3ccc(Br)cc32)nc2ccccc21', 'inhibition of growth at 50 µM', '< 50%');
